Record form. Attribute: TGI. Fill in for each entry.
test system: SN12C renal; test: NCI tumour cell line growth inhibition, 48 h

| COMPOUND | ENDPOINT RESULT |
| --- | --- |
| O=C1C=C(Nc2ccccc2)c2ccccc2C1=O | 3.11 µM |
| CN(C)CCC(N)(P(=O)([O-])[O-])P(=O)([O-])[O-].N.N.[Pt+2] | > 100 µM |
| Fc1ccc(Nc2nc(Cl)c3[nH]cnc3n2)cc1Cl | > 100 µM |
| CCCCn1c(=O)[nH]c(N)c([C@@H]2c3c([nH]c(=O)n(CCCC)c3=O)Oc3ccc4ccccc4c32)c1=O | 6.94 µM |

// input: 8 compounds below; output: TGI for each
1. CCNC1=C(NC(=O)c2ccc(F)cc2)C(=O)c2ccccc2C1=O
2. N#CC1=C(N)Oc2c(sc3c(Br)cccc23)C1c1ccc([N+](=O)[O-])cc1 (centres undefined)
3. O=C1CSC(c2c[nH]c3ccccc23)N1c1cccc(Cl)c1 (centres undefined)
4. O=C(CCCc1ccc(N(CCCl)CCCl)cc1)NCc1ccccc1
5. O=C(CCc1n[nH]c(=S)o1)Nc1cc(Cl)ccc1Cl
6. COc1nc(NC2OC(COC(C)=O)C(OC(C)=O)C(OC(C)=O)C2OC(C)=O)c(N=CC=Nc2c(NC3OC(COC(C)=O)C(OC(C)=O)C(OC(C)=O)C3OC(C)=O)nc(OC)[nH]c2=O)c(=O)[nH]1 (centres undefined)
7. COC(=O)[C@@H](C)C[C@H](Cc1ccccc1)NC(=O)c1nc([C@@H](C[C@H](C(C)C)N(C)C(=O)[C@@H](NC(=O)[C@H]2C[C@H](O)CCN2C)C(C)C)OC(C)=O)sc1C(C)C
8. COC(=O)C(=O)C(C(=O)C(=O)Nc1ccc(Cl)c(Cl)c1)c1nc2ccc(C(=O)c3ccccc3)cc2[nH]c1=O (centres undefined)

A)
["> 100 µM", "13.1 µM", "> 100 µM", "> 100 µM", "> 100 µM", "> 100 µM", "3.3 µM", "> 100 µM"]

// input: 7 compounds below; output: TGI for each
1. C=CCN1C(=O)CC2[C@@H]3CCc4cc(O)ccc4C3CC[C@]2(C)C1=O (some centres undefined)
2. CC1(C)CNC(=O)C2(CCCO2)CNC(C)(C)CNC(=O)C2(CCCO2)CN1 (centres undefined)
3. Cc1ccc(-c2n[nH]c(=O)n2/N=C\c2ccccc2O)cc1
4. Cc1ccc2c(c1C)C(=O)C1(C2)Cc2ccc3c(c2C1=O)CCC3 (centres undefined)
5. CN1CCN(Cc2ccc(NC(=O)c3cncc(C#Cc4cnc(N)c5ncccc45)c3)cc2C(F)(F)F)CC1
6. CNC(=O)Oc1cc(C(C)C)ccc1Sc1ccc(C(C)C)cc1OC(=O)NC
7. C#CCOC(=O)C(N)CC(N)=O (centres undefined)

A)
1. > 10 µM
2. > 10 µM
3. > 100 µM
4. > 100 µM
5. 1.5 µM
6. 24 µM
7. > 100 µM

###

Record form. Attribute: TGI. Fill in for each entry.
system: CAKI-1 renal; assay: NCI tumour cell line growth inhibition, 48 h

| COMPOUND | READOUT NAME | ENDPOINT RESULT |
| --- | --- | --- |
| COc1cc2nc3n(c2cc1OC)C(O)c1c(Cl)nc(SC)nc1S3 (centres undefined) | TGI | > 45.4 µM |
| C#CCN(Cc1ccc2nc(-c3ccccc3)c(Cl)nc2c1)c1ccc(F)cc1 | TGI | > 100 µM |

// input: 3 compounds below; output: TGI for each
1. CC1CCCCCC(=O)c2c(O)cc(O)cc2CC(=O)O1 (centres undefined)
2. O=C(NCc1cn(Cc2cccc(Oc3ccccc3)c2)nn1)c1cccnc1Nc1ccc(F)cc1
3. CC(C)(C)[Si](C)(C)OCC1OC(n2cnc3c(N)ncnc32)C2OC(=S)OC12 (centres undefined)

A)
1. > 100 µM
2. > 100 µM
3. > 100 µM

// input: 3 compounds below; output: TGI for each
1. CC(=O)OCC1C(=O)OCC1C(=O)N1Cc2cc3ccccc3nc2C1 (centres undefined)
2. C[C@@H]1C(=O)CC2C(C)(C)CCC[C@]2(C)[C@@]12CC[C@]1(C=COC1)O2 (some centres undefined)
3. COc1cc([C@@H]2c3cc4c(cc3[C@H](OC3OC5COC(c6ccco6)OC5C(O)C3O)C3COC(=O)[C@@H]32)OCO4)cc(OC)c1OC (some centres undefined)

A)
3.16 µM
> 100 µM
> 69.9 µM

Q) Report TGI for "O=C([CH-]C(=O)c1ccccc1)c1ccccc1.O=C([CH-]C(=O)c1ccccc1)c1ccccc1.O=C([CH-]C(=O)c1ccccc1)c1ccccc1.[Ga+3]" please.
A) > 100 µM
